I'd appreciate it if you could supply Tmax values for the items below.
measurementProtocol: Dog 28-day toxicokinetics
Assay type: in vivo
conditionLabel: both sexes, beagle, plasma, po, 800 mg/kg/day, 800 mg/kg/day po, day 1
Reply with a number, then the unit it belongs to.

### Prompt Read the entry `CSc1ccc(OCc2ncc([N+](=O)[O-])n2C)cc1` and write its reported Tmax.
### Response 1.15 h

### Prompt Determine from records and report Tmax for `Cn1c([N+](=O)[O-])cnc1COc1ccc(S(C)(=O)=O)cc1`
### Response 14.4 h

### Prompt For the compound Cn1c([N+](=O)[O-])cnc1COc1ccc([S+](C)[O-])cc1 (stereo not drawn) [Fexinidazole sulfoxide] , give its reported Tmax.
### Response 1.55 h

###

measurementProtocol: Rat 28-day toxicokinetics
Assay type: in vivo
conditionLabel: female, Sprague Dawley (Crl:CD (SD)IGS BR), plasma, po, 200 mg/kg, Day 1, female
valueType: Cmax (µg/mL)
Write the number in µg/mL without appending the unit.

### Prompt Annotate the molecule Cn1c([N+](=O)[O-])cnc1COc1ccc(S(C)(=O)=O)cc1 [Fexinidazole sulfone] with its measured Cmax.
### Response 10

### Prompt Return the recorded Cmax value; entry: Cn1c([N+](=O)[O-])cnc1COc1ccc([S+](C)[O-])cc1 (stereo not drawn) [Fexinidazole sulfoxide]
### Response 12.8

### Prompt State its Cmax for this molecule: CSc1ccc(OCc2ncc([N+](=O)[O-])n2C)cc1 [Fexinidazole]
### Response 0.604

###

measurementProtocol: Mouse brain concentrations
Assay type: in vivo
conditionLabel: female, NMRI, mouse, brain; po 25 mg/kg, 30 min; read-out: Mean plasma:brain ratio (plasma = 1.00)
valueType: Kp at 30 min
Give your answer as a number; write no unit.

### Prompt Identify the reported Kp at 30 min for the following entry. `CSc1ccc(OCc2ncc([N+](=O)[O-])n2C)cc1`
### Response 1.16

### Prompt Tell me measured Kp at 30 min for `Cn1c([N+](=O)[O-])cnc1COc1ccc(S(C)(=O)=O)cc1` please.
### Response 0.05

### Prompt # return recorded Kp at 30 min for input Cn1c([N+](=O)[O-])cnc1COc1ccc([S+](C)[O-])cc1 (stereo not drawn) [Fexinidazole sulfoxide]
### Response 0.078

###

System: human MDR1
measurementProtocol: MDR1-MDCK permeability
conditionLabel: dog, MDCK-MDR1
valueType: Papp B→A (nm/s)
Express the result in nm/s but write the number alone.

### Prompt Respond only with Papp B→A recorded for C[C@H]1O[C@@H](O[C@H]2[C@@H](O)C[C@H](O[C@H]3[C@@H](O)C[C@H](O[C@H]4CC[C@@]5(C)[C@H](CC[C@@H]6[C@@H]5C[C@@H](O)[C@]5(C)[C@@H](C7=CC(=O)OC7)CC[C@]65O)C4)O[C@@H]3C)O[C@@H]2C)C[C@H](O)[C@@H]1O [Digoxin, reference compound]
### Response 88.3

###

measurementProtocol: Rat 28-day toxicokinetics
Assay type: in vivo
conditionLabel: Sprague-Dawley (Crl:CD (SD)IGS BR), plasma, po, 200 mg/kg/day, Day 28, male, read-out: AUC within 24 hours post dosing
valueType: AUC (µg·h/mL)
Write the answer as a number in µg·h/mL, unit excluded.

### Prompt Determine from records and report AUC for `Cn1c([N+](=O)[O-])cnc1COc1ccc(S(C)(=O)=O)cc1`
### Response 341
